// reported IC50 for each item listed
target: JNK2 (Homo sapiens); experiment: Biochemical JNK2 kinase inhibition (Z'-lyte format); settings: Table 2
Sequence (P45984 whole entry): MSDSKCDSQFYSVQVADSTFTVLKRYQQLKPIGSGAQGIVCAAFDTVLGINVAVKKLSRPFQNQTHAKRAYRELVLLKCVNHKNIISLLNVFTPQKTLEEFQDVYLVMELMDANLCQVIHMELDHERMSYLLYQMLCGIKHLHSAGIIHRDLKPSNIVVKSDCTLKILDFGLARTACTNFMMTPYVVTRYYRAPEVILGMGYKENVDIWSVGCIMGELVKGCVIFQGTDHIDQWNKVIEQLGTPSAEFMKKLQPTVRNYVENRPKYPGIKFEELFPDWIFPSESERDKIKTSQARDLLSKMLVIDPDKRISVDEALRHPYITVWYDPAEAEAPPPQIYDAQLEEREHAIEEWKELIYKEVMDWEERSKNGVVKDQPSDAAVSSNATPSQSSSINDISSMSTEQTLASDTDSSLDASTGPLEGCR

smilesRecord	targetOfAssay	u	IC50
CN(C)C/C=C/C(=O)Nc1cccc(C(=O)Nc2ccc(Nc3nccc(-c4c(-c5ccccc5)nn5ccccc45)n3)cc2)c1	JNK2 (Homo sapiens)	nM	0.5
C=CC(=O)Nc1cccc(C(=O)Nc2ccc(Nc3nccc(-c4cccnc4)n3)cc2)c1	JNK2 (Homo sapiens)	nM	1.93
CN(C)C/C=C/C(=O)Nc1cccc(C(=O)Nc2ccc(Nc3nccc(/C(C#N)=C4\Nc5ccccc5S4)n3)cc2)c1	JNK2 (Homo sapiens)	nM	11.3

Value source: patent US10144730B2
